Where do the numbers come from? From patent US8536202B2.

# method-summary: log P determination by HPLC on reversed-phase columns (EEC Directive 79/831 Annex V.A8)
# Assay type: physicochemical
# condition-description: pH 2.7
Here, each record is paired with measured chromatographic logP data.

smiles: CNC(=O)c1cc(Cl)cc(C)c1NC(=O)c1cc(Cn2cc(C(F)(F)C(F)(F)F)nn2)nn1-c1ncccc1Cl
chromatographic logP: 3.02
--
smiles: CCNC(=O)c1cc(Cl)cc(C)c1NC(=O)c1cc(Cn2ncc(C(F)(F)C(F)(F)F)n2)nn1-c1ncccc1Cl
chromatographic logP: 3.66
--
smiles: Cc1cc(Cl)cc(C(=O)NC(C)C)c1NC(=O)c1cc(Cn2cc(C(F)(C(F)(F)F)C(F)(F)F)nn2)nn1-c1ncccc1Cl
chromatographic logP: 3.85
--
smiles: CSC[C@H](C)NC(=O)c1cc(Cl)cc(C)c1NC(=O)c1cc(Cn2cc(C(F)(F)C(F)(F)F)nn2)nn1-c1ncccc1Cl
chromatographic logP: 3.66

* * *

Here, each record is paired with measured chromatographic logP data.
# method-summary: log P determination by HPLC on reversed-phase columns (EEC Directive 79/831 Annex V.A8)
# Assay type: physicochemical
# condition-description: pH 2.7
reported-property: chromatographic logP

compound: Cc1cc(Cl)cc(C(=O)NC2(C3CC3)CC2)c1NC(=O)c1cc(Cn2ncc(C(F)(F)F)n2)nn1-c1ncccc1Cl
reported-property: chromatographic logP
measured-result: 3.78
//
compound: CCNC(=O)c1cc(C#N)cc(C)c1NC(=O)c1cc(Cn2ncc(C(F)(F)F)n2)nn1-c1ncccc1Cl
reported-property: chromatographic logP
measured-result: 2.88
//
compound: Cc1cc(C#N)cc(C(=O)NC(C)(C)C)c1NC(=O)c1cc(Cn2nc3ccc(Br)cc3n2)nn1-c1ncccc1Cl
reported-property: chromatographic logP
measured-result: 3.85
//
compound: Cc1cc(C#N)cc(C(=O)NC(C)C2CC2)c1NC(=O)c1cc(Cn2cc(C(F)(F)F)nn2)nn1-c1ncccc1Cl (stereo not shown)
reported-property: chromatographic logP
measured-result: 2.95
//
compound: Cc1cc(I)cc(C(=O)NC(C)C2CC2)c1NC(=O)c1cc(Cn2cc(C(F)(F)C(F)(F)F)nn2)nn1-c1ncccc1Cl (stereo not shown)
reported-property: chromatographic logP
measured-result: 4.03
//
compound: CCNC(=O)c1cc(C#N)cc(C)c1NC(=O)c1cc(Cn2cc(C(F)(F)F)nn2)nn1-c1ncccc1Cl
reported-property: chromatographic logP
measured-result: 2.49
//
compound: Cc1cc(Cl)cc(C(=O)NC(C)C2CC2)c1NC(=O)c1cc(Cn2ncc(C(F)(F)F)n2)nn1-c1ncccc1Cl (stereo not shown)
reported-property: chromatographic logP
measured-result: 3.8

* * *

# method-summary: log P determination by HPLC on reversed-phase columns (EEC Directive 79/831 Annex V.A8)
# Format: physicochemical
# condition-description: pH 2.7; HPLC on reversed-phase columns (C 18), EEC Directive 79/831 Annex V.A8; read-out: logP
# criterion met = chromatographic logP below 4 (exclusive); criterion not met = chromatographic logP at/above 4

molecule: Cc1cc(I)cc(C(=O)NC(C)C)c1NC(=O)c1cc(Cn2ncc(C(F)(F)C(F)(F)C(F)(F)F)n2)nn1-c1ncccc1Cl
answer-label: criterion not met
--
molecule: Cc1cc(I)cc(C(=O)NC(C)C2CC2)c1NC(=O)c1cc(Cn2ncc(C(F)(F)C(F)(F)C(F)(F)F)n2)nn1-c1ncccc1Cl (stereo not drawn)
answer-label: criterion not met
--
molecule: Cc1cc(I)cc(C(N)=O)c1NC(=O)c1cc(Cn2cc(C(F)(F)C(F)(F)C(F)(F)F)nn2)nn1-c1ncccc1Cl
answer-label: criterion met
--
molecule: Cc1cc(Cl)cc(C(=O)NCC2CC2)c1NC(=O)c1cc(Cn2ncc(C(F)(F)C(F)(F)C(F)(F)F)n2)nn1-c1ncccc1Cl
answer-label: criterion not met
--
molecule: CNC(=O)c1cc(C#N)cc(C)c1NC(=O)c1cc(Cn2cc(C(F)(F)C(F)(F)C(F)(F)F)nn2)nn1-c1ncccc1Cl
answer-label: criterion met
--
molecule: CSC[C@H](C)NC(=O)c1cc(I)cc(C)c1NC(=O)c1cc(Cn2cc(C(F)(F)C(F)(F)C(F)(F)F)nn2)nn1-c1ncccc1Cl
answer-label: criterion not met

* * *

# method-summary: log P determination by HPLC on reversed-phase columns (EEC Directive 79/831 Annex V.A8)
# Assay type: physicochemical
# condition-description: pH 2.7
Tick t if chromatographic logP is 3 or greater. Tick f if chromatographic logP is less than 3.

molecule: CNC(=O)c1cc(Cl)cc(C)c1NC(=O)c1cc(Cn2cc(-c3ccc(F)cc3)nn2)nn1-c1ncccc1Cl [Example 16]
answer-label: f
//
molecule: CSC[C@H](C)NC(=O)c1cc(Cl)cc(C)c1NC(=O)c1cc(Cn2ncc(C(F)(F)F)n2)nn1-c1ncccc1Cl [Example 144]
answer-label: t
//
molecule: Cc1cc(I)cc(C(N)=O)c1NC(=O)c1cc(Cn2cc(C(F)(C(F)(F)F)C(F)(F)F)nn2)nn1-c1ncccc1Cl [Example 239]
answer-label: t
//
molecule: Cc1cc(Br)cc(C(=O)NC2CC2)c1NC(=O)c1cc(Cn2ncc(C(F)(F)F)n2)nn1-c1ncccc1Cl [Example 174]
answer-label: t
//
molecule: CNC(=O)c1cc(C#N)cc(C)c1NC(=O)c1cc(Cn2ncc(C(F)(F)F)n2)nn1-c1ncccc1Cl [Example 124]
answer-label: f
//
molecule: Cc1cc(Cl)cc(C(=O)NC(C)C2CC2)c1NC(=O)c1cc(Cn2nccn2)nn1-c1ncccc1Cl (centres unmarked) [Example 122]
answer-label: f
//
molecule: Cc1cc(I)cc(C(=O)NCC2CC2)c1NC(=O)c1cc(Cn2cc(C(F)(F)C(F)(F)F)nn2)nn1-c1ncccc1Cl [Example 314]
answer-label: t
//
molecule: Cc1cc(Cl)cc(C(=O)NC(C)(C)C)c1NC(=O)c1cc(Cn2ncc(-c3ccc(Cl)cc3)n2)nn1-c1ncccc1Cl [Example 49]
answer-label: t
//
molecule: Cc1cc(I)cc(C(=O)NC2CC2)c1NC(=O)c1cc(Cn2nc(C(F)(F)F)c(C(F)(F)F)n2)nn1-c1ncccc1Cl [Example 390]
answer-label: t
//
molecule: CNC(=O)c1cc(C#N)cc(C)c1NC(=O)c1cc(Cn2nc3cc(Cl)c(Cl)cc3n2)nn1-c1ncccc1Cl [Example 81]
answer-label: t
//
molecule: CNC(=O)c1cc(C#N)cc(C)c1NC(=O)c1cc(Cn2cc(C(C)(C)C)nn2)nn1-c1ncccc1Cl [Example 31]
answer-label: f
//
molecule: CNC(=O)c1cc(I)cc(C)c1NC(=O)c1cc(Cn2cc(C(F)(C(F)(F)F)C(F)(F)F)nn2)nn1-c1ncccc1Cl [Example 233]
answer-label: t

* * *

# method-summary: log P determination by HPLC on reversed-phase columns (EEC Directive 79/831 Annex V.A8)
# Type: physicochemical
# condition-description: reversed-phase C18 HPLC column, pH 2.7; HPLC on reversed-phase columns (C 18), EEC Directive 79/831 Annex V.A8; read-out: logP
Tick 1 if chromatographic logP is 4 or greater. Tick -1 if chromatographic logP is less than 4.

compound: O=C(NCC1CC1)c1cc(Cl)cc(Cl)c1NC(=O)c1cc(Cn2ncc(C(F)(C(F)(F)F)C(F)(F)F)n2)nn1-c1ncccc1Cl [Example 277]
answer-label: 1
//
compound: CSC[C@H](C)NC(=O)c1cc(Cl)cc(Cl)c1NC(=O)c1cc(Cn2ncc(C(F)(C(F)(F)F)C(F)(F)F)n2)nn1-c1ncccc1Cl [Example 278]
answer-label: 1
//
compound: Cc1cc(I)cc(C(=O)NC(C)(C)C)c1NC(=O)c1cc(Cn2ncc(C(F)(C(F)(F)F)C(F)(F)F)n2)nn1-c1ncccc1Cl [Example 268]
answer-label: 1
//
compound: Cc1cc(C#N)cc(C(=O)NC(C)C)c1NC(=O)c1cc(Cn2cc(C(F)(F)F)nn2)nn1-c1ccccc1Cl [Example 290]
answer-label: -1
//
compound: Cc1cc(I)cc(C(=O)NCC2CC2)c1NC(=O)c1cc(Cn2cc(C(F)(C(F)(F)F)C(F)(F)F)nn2)nn1-c1ncccc1Cl [Example 237]
answer-label: 1
//
compound: Cc1cc(I)cc(C(=O)NC(C)(C)C)c1NC(=O)c1cc(Cn2cc(C(F)(C(F)(F)F)C(F)(F)F)nn2)nn1-c1ncccc1Cl [Example 236]
answer-label: 1
//
compound: Cc1cc(C#N)cc(C(=O)NC(C)(C)C)c1NC(=O)c1cc(Cn2ncc(C(F)(F)F)n2)nn1-c1ncccc1Br [Example 10]
answer-label: -1
//
compound: Cc1cc(C#N)cc(C(=O)NC2CC2)c1NC(=O)c1cc(Cn2ncc(C(F)(F)F)n2)nn1-c1ccccc1Cl [Example 289]
answer-label: -1
//
compound: CNC(=O)c1cc(C#N)cc(C)c1NC(=O)c1cc(Cn2cc(C(F)(C(F)(F)F)C(F)(F)F)nn2)nn1-c1ccccc1Cl [Example 295]
answer-label: -1
//
compound: Cc1cc(C#N)cc(C(=O)NC(C)(C)C)c1NC(=O)c1cc(Cn2ncc(C(F)(C(F)(F)F)C(F)(F)F)n2)nn1-c1ncccc1Cl [Example 252]
answer-label: 1
//
compound: CNC(=O)c1cc(Cl)cc(C)c1NC(=O)c1cc(Cn2ncc(C(F)(F)F)n2)nn1-c1ccccc1Cl [Example 287]
answer-label: -1
//
compound: Cc1cc(C#N)cc(C(=O)NC2CC2)c1NC(=O)c1cc(Cn2ncc(C(F)(C(F)(F)F)C(F)(F)F)n2)nn1-c1ncccc1Cl [Example 256]
answer-label: -1
//
compound: Cc1cc(C#N)cc(C(=O)NC(C)C)c1NC(=O)c1cc(Cn2ncc(C(F)(F)F)n2)nn1-c1ccccc1Cl [Example 286]
answer-label: -1
//
compound: Cc1cc(Cl)cc(C(=O)NC(C)(C)C)c1NC(=O)c1cc(Cn2cc(C(F)(C(F)(F)F)C(F)(F)F)nn2)nn1-c1ncccc1Cl [Example 228]
answer-label: 1
//
compound: Cc1cc(C#N)cc(C(=O)NC(C)(C)C)c1NC(=O)c1cc(Cn2cc(C(F)(C(F)(F)F)C(F)(F)F)nn2)nn1-c1ncccc1Cl [Example 220]
answer-label: -1
//
compound: Cc1cc(I)cc(C(=O)NC(C)C2CC2)c1NC(=O)c1cc(Cn2cc(C(F)(C(F)(F)F)C(F)(F)F)nn2)nn1-c1ncccc1Cl (stereo not shown) [Example 234]
answer-label: 1
//
compound: Cc1cc(C#N)cc(C(=O)NCC2CC2)c1NC(=O)c1cc(Cn2cc(C(F)(C(F)(F)F)C(F)(F)F)nn2)nn1-c1ncccc1Cl [Example 221]
answer-label: -1
//
compound: Cc1cc(C#N)cc(C(=O)NC2CC2)c1NC(=O)c1cc(Cn2cc(C(F)(C(F)(F)F)C(F)(F)F)nn2)nn1-c1ncccc1Cl [Example 224]
answer-label: -1
//
compound: Cc1cc(C#N)cc(C(=O)NC2(C3CC3)CC2)c1NC(=O)c1cc(Cn2ncc(C(F)(C(F)(F)F)C(F)(F)F)n2)nn1-c1ncccc1Cl [Example 283]
answer-label: 1
//
compound: Cc1cc(C#N)cc(C(=O)NC2CC2)c1NC(=O)c1cc(Cn2ncc(C(F)(F)F)n2)nn1-c1ncccc1Br [Example 11]
answer-label: -1
